Tested on: Rice
Assay details: Preemergence Herbicidal Activity, Rice
Assay type: in vivo
Settings: Oryza sativa, pre-emergence, 2.0 kg/ha
Structures can show the parent of a compound that is named as a salt.
Outcome: MET for plant injury at 2000 g/ha of at least 10%; NOT MET for anything lower.

Check out these entries, answers already filled in.
- Compound: "CCCn1nnn(-c2cc(N(S(=O)(=O)CC)S(=O)(=O)CC)c(Cl)cc2F)c1=O"
  Label value: "MET"
- Compound: "CCCn1nnn(-c2cc(NS(=O)(=O)CC)c(Cl)cc2F)c1=O"
  Label value: "MET"
- Compound: "O=c1n(CCCF)nnn1-c1cc(NS(=O)(=O)C(F)(F)F)c(Cl)cc1F [Compound 32, potassium salt]"
  Label value: "MET"
- Compound: "CS(=O)(=O)N(c1cc(-n2nnn(CCCF)c2=O)c(Cl)cc1F)S(C)(=O)=O"
  Label value: "NOT MET"

Read the next record carefully.
Q: State whether the measured plant injury at 2000 g/ha reaches 10%, counting equality as reaching it, for CCS(=O)(=O)N(c1cc(-n2nnn(CCCF)c2=O)c(Cl)cc1F)S(=O)(=O)CC
Ans: NOT MET

---

Tested on: Cotton
Assay details: Postemergence Herbicidal Activity, Cotton
Assay type: in vivo
Settings: Gossypium hirsutum, post-emergence, 0.5 kg/ha
Item-by-item account of plant injury at 500 g/ha

- Chem smiles: "CCCS(=O)(=O)N(c1cc(-n2nnn(CCCF)c2=O)c(F)cc1Cl)S(=O)(=O)CCC"
  plant injury at 500 g/ha: "100%"
- Chem smiles: "CCS(=O)(=O)N(c1cc(-n2nnn(CCCF)c2=O)c(F)cc1F)S(=O)(=O)CC"
  plant injury at 500 g/ha: "90%"
- Chem smiles: "CCCS(=O)(=O)N(c1cc(-n2nnn(CCCF)c2=O)c(F)cc1F)S(=O)(=O)CCC"
  plant injury at 500 g/ha: "40%"
- Chem smiles: "CCCS(=O)(=O)Nc1cc(-n2nnn(CCCF)c2=O)c(F)cc1Cl"
  plant injury at 500 g/ha: "100%"
- Chem smiles: "CCS(=O)(=O)N(c1cc(-n2nnn(CCCF)c2=O)c(F)cc1Cl)S(C)(=O)=O"
  plant injury at 500 g/ha: "100%"
- Chem smiles: "CCS(=O)(=O)N(CC#N)c1cc(-n2nnn(CCCF)c2=O)c(F)cc1Cl"
  plant injury at 500 g/ha: "100%"

Q: Please supply the value of reported plant injury at 500 g/ha for the item CS(=O)(=O)N(c1cc(-n2nnn(CCCF)c2=O)c(F)cc1F)S(C)(=O)=O
Ans: 95%

Q: Please supply the value of reported plant injury at 500 g/ha for the item CCS(=O)(=O)N(COC)c1cc(-n2nnn(CCCF)c2=O)c(F)cc1Cl
Ans: 100%

Q: Please supply the value of reported plant injury at 500 g/ha for the item CCS(=O)(=O)N(C)c1cc(-n2nnn(CCCF)c2=O)c(F)cc1Cl
Ans: 100%

---

Item-by-item account of pest or weed control at 500 g/ha
Test system: Green Foxtail
Assay details: Postemergence Herbicidal Activity, Green Foxtail
Type: in vivo
Settings: Setaria viridis, post-emergence, 0.5 kg/ha
The response must be a number in % with no trailing unit.

- Chem smiles: "CS(=O)(=O)N(c1cc(-n2nnn(CCCF)c2=O)c(F)cc1F)S(C)(=O)=O"
  pest or weed control at 500 g/ha (%): 50
- Chem smiles: "CCCS(=O)(=O)N(c1cc(-n2nnn(CCCF)c2=O)c(F)cc1Cl)S(=O)(=O)CCC"
  pest or weed control at 500 g/ha (%): 80
- Chem smiles: "CCS(=O)(=O)N(CC#N)c1cc(-n2nnn(CCCF)c2=O)c(F)cc1Cl"
  pest or weed control at 500 g/ha (%): 70
- Chem smiles: "CCS(=O)(=O)N(COC)c1cc(-n2nnn(CCCF)c2=O)c(F)cc1Cl"
  pest or weed control at 500 g/ha (%): 90
- Chem smiles: "CCS(=O)(=O)N(C)c1cc(-n2nnn(CCCF)c2=O)c(F)cc1Cl"
  pest or weed control at 500 g/ha (%): 70
- Chem smiles: "CCCS(=O)(=O)N(c1cc(-n2nnn(CCCF)c2=O)c(F)cc1F)S(=O)(=O)CCC"
  pest or weed control at 500 g/ha (%): 30
- Chem smiles: "CCS(=O)(=O)N(c1cc(-n2nnn(CCCF)c2=O)c(F)cc1F)S(=O)(=O)CC"
  pest or weed control at 500 g/ha (%): 40
- Chem smiles: "CCCS(=O)(=O)Nc1cc(-n2nnn(CCCF)c2=O)c(F)cc1Cl"
  pest or weed control at 500 g/ha (%): 100

Now for the compound whose pest or weed control at 500 g/ha we want.
Q: Please supply the value of reported pest or weed control at 500 g/ha for the item CCS(=O)(=O)N(c1cc(-n2nnn(CCCF)c2=O)c(F)cc1Cl)S(C)(=O)=O
Ans: 80
